assay: Peptide stability in simulated intestinal fluid (SIF); assay type: in vitro ADME; conditions: pig, pH 6.8
*1 amine or outer side, *2 acyl side, *3 side chain or, on linkers, in order; H or OH if unused. Where a SMILES comes first, the peptide text is derived from it. Bridges are numbered along the chain shown (N, C = ends). [ ]: non-standard residue; d: D form. Trp(6-F) = N[C@@H](Cc1c[nH]c2cc(F)ccc12)C(=O)O; AEF = NCCOc1ccc(C[C@H](N)C(=O)O)cc1; X1 = O=C(Cc1ccc(CN[*:1])cc1)[*:2]; 3Pal = N[C@@H](Cc1cccnc1)C(=O)O; αMeL = CC(C)C[C@](C)(N)C(=O)O; CH2COCH2 = O=C(C[*:1])C[*:2]; Dab = NCC[C@H](N)C(=O)O
observed.property: remaining at 1 h, 10 μM (%)

[[record]]
compound = "CC(C)C[C@]1(C)NC(=O)[C@H](Cc2c[nH]c3cc(F)ccc23)NC(=O)[C@H](Cc2ccc(OCCN)cc2)NC(=O)[C@@H]2CSCC(=O)CSC[C@H](NC(=O)[C@H](CO)NC(=O)Cc3ccc(cc3)CNC(=O)CC[C@@H](C(=O)N[C@@H](CCN)C(=O)N[C@@H](Cc3cccnc3)C(N)=O)NC1=O)C(=O)N[C@@H](Cc1c[nH]c3ccccc13)C(=O)N[C@@H](CCC(N)=O)C(=O)N2 [Compound 121] ([X1]SCWQC[AEF][Trp(6-F)][αMeL]E[Dab][3Pal]-NH2; linker 3-6 via CH2COCH2; lactam N-10)"
observed_property = "remaining at 1 h, 10 μM"
measured_number = 57


----------
test: Peptide stability in simulated intestinal fluid (SIF); assay type: in vitro ADME; conditions: pig, simulated intestinal fluid (SIF) with porcine pancreatin, Table 3-2, porcine pancreatin, pH 6.8, 37° C., 10 μM, 1 h, read-out: SIF (% remaining 1 h)
*1 amine or outer side, *2 acyl side, *3 side chain or, on linkers, in order; H or OH if unused. Where a SMILES comes first, the peptide text is derived from it. Bridges are numbered along the chain shown (N, C = ends). [ ]: non-standard residue; d: D form. 2Nal = N[C@@H](Cc1ccc2ccccc2c1)C(=O)O; AEF = NCCOc1ccc(C[C@H](N)C(=O)O)cc1; αMeL = CC(C)C[C@](C)(N)C(=O)O; CH2COCH2 = O=C(C[*:1])C[*:2]; 3Amb = NCc1cccc(C(=O)O)c1
observed.property: remaining at 1 h, 10 μM (%)

[[record]]
molecule = "CC(C)C[C@@H]1NC(=O)[C@H](Cc2ccc3ccccc3c2)NC(=O)[C@H](Cc2ccc(OCCN)cc2)NC(=O)[C@@H]2CSCC(=O)CSC[C@H](NC(=O)[C@H](CO)NC(=O)c3cccc(c3)CNC(=O)CC[C@@H](C(=O)N[C@@H](CCCNC(=N)N)C(N)=O)NC1=O)C(=O)N[C@@H](Cc1c[nH]c3ccccc13)C(=O)N[C@@H](CCC(N)=O)C(=O)N2 [Compound 39] ([3Amb]SCWQC[AEF][2Nal]LER-NH2; linker 3-6 via CH2COCH2; lactam N-10)"
measured_number = 0

[[record]]
molecule = "CC(C)C[C@]1(C)NC(=O)[C@H](Cc2ccc3ccccc3c2)NC(=O)[C@H](Cc2c[nH]c3ccccc23)NC(=O)[C@@H]2CSCC(=O)CSC[C@H](NC(=O)[C@H](CO)NC(=O)c3cccc(c3)CNC(=O)CC[C@@H](C(=O)N[C@@H](CCCNC(=N)N)C(N)=O)NC1=O)C(=O)N[C@@H](Cc1c[nH]c3ccccc13)C(=O)N[C@@H](CCC(N)=O)C(=O)N2 [Compound 40] ([3Amb]SCWQCW[2Nal][αMeL]ER-NH2; linker 3-6 via CH2COCH2; lactam N-10)"
measured_number = 70

[[record]]
molecule = "CC(C)C[C@]1(C)NC(=O)[C@H](Cc2ccc3ccccc3c2)NC(=O)[C@H](Cc2ccc(OCCN)cc2)NC(=O)[C@@H]2CCC(=O)NCC[C@H](NC(=O)[C@H](CO)NC(=O)Cc3ccc(cc3)CNC(=O)CC[C@@H](C(=O)N[C@@H](CCN)C(=O)N[C@@H](Cc3cccnc3)C(N)=O)NC1=O)C(=O)N[C@@H](Cc1c[nH]c3ccccc13)C(=O)N[C@@H](CCC(N)=O)C(=O)N2 (relative stereo) [Compound 123]"
measured_number = 46

